Target: T1, human IL-11 (AAH12506.1, Pro22-Leu199) (human, UniProt P20809 22-199)
T1 construct: The range Pro22-Leu199 counts on AAH12506.1; The Octet runs say only 'human IL-11'; also called hIL-11
T1 chain: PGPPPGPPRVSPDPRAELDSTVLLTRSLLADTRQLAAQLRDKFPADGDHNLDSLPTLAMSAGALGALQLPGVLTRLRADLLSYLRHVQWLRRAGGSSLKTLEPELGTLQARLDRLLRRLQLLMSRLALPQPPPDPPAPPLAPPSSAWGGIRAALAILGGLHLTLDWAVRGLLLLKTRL
Test: BLI (Octet), antibody captured, human IL-11 in solution
endpoint.label: kon (M⁻¹ s⁻¹)
Please state the figure in M⁻¹ s⁻¹; there is no need to write the unit.

# binder, unit.symbol, kon
rows = [
    ("hz18A10-VHm1 + hz18A10-VLm7 (antibody, V domains shown, Constant regions not restated for this antibody) VH: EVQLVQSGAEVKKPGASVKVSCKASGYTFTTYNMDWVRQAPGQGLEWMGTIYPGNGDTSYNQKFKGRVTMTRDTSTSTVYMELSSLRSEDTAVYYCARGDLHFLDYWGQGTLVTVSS VL: DIQMTQSPSSLSASVGDRVTITCKASQSVFRDVAWYQQKPGKAPKLLIYSASNRYTGVPSRFSGSGSGTDFTFTISSLQPEDIATYYCQHDYSSPYTFGQGTKLEIK", "M⁻¹ s⁻¹", 544000),
    ("hz18A10-VHm6 + hz18A10-VLm9 (antibody, V domains shown, Constant regions not restated for this antibody) VH: EVQLVQSGAEVKKPGASVKVSCKASGYTFNHYDMDWVRQAPGQGLEWMGTIYPGNGDTSYNQKFKGRVTMTRDTSTSTVYMELSSLRSEDTAVYYCARGDLYALDYWGQGTLVTVSS VL: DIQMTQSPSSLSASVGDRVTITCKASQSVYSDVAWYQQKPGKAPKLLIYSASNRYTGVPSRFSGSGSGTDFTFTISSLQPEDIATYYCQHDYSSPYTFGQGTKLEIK", "M⁻¹ s⁻¹", 999000),
    ("hz18A10-VHm18 + hz18A10-VLm19 (antibody, V domains shown, Constant regions not restated for this antibody) VH: EVQLVQSGAEVKKPGASVKVSCKASGYTFTHYNMDWVRQAPGQGLEWMGTIYPGEGDTSYNQKFKGRVTMTRDTSTSTVYMELSSLRSEDTAVYYCARGDLYALDYWGQGTLVTVSS VL: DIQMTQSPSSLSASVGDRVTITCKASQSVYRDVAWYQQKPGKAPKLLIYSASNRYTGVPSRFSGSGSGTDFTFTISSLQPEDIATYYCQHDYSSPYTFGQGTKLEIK", "M⁻¹ s⁻¹", "1.13e+06"),
    ("hz18A10-VHm13 + hz18A10-VLm19 (antibody, V domains shown, Constant regions not restated for this antibody) VH: EVQLVQSGAEVKKPGASVKVSCKASGYTFTHYEMDWVRQAPGQGLEWMGTIYPGNGDTSYNQKFKGRVTMTRDTSTSTVYMELSSLRSEDTAVYYCARGDLYALDYWGQGTLVTVSS VL: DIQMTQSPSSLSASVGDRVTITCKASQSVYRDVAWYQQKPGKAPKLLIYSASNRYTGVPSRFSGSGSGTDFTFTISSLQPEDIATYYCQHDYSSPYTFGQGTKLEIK", "M⁻¹ s⁻¹", 729000),
]

// below: kon requested for another binder
Ask: Supply measured kon of hz18A10-VHm16 + hz18A10-VLm19 (antibody, V domains shown, Constant regions not restated for this antibody) VH: EVQLVQSGAEVKKPGASVKVSCKASGYTFTHYDMDWVRQAPGQGLEWMGTIYPGNADTSYNQKFKGRVTMTRDTSTSTVYMELSSLRSEDTAVYYCARGDLYALDYWGQGTLVTVSS VL: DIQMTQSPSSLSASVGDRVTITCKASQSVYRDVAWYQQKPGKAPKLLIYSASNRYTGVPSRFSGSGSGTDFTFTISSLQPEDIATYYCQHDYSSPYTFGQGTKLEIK in your reply.
Reply: 1.26e+06

Values were extracted from patent US20250197488A1.
